Test system: rat hair loss model
protocol_details: Rat hair loss (androgenic alopecia) model: hair length
Format: in vivo, Wistar rats
condition_summary: rat AGA model; external 5% tincture twice a day
Marks after values point to notes of the source that are not given here.
observed_property: 30-day hair length

Nc1ccccc1-c1ccc(C(=O)N(c2ncccc2Cl)[C@@H]2CCCNC2)cc1 [CLY-39]    9.3* mm
Nc1cc(N2CCCCC2)nc(N)[n+]1[O-] [Positive control group, minoxidil, reference compound]    8.5* mm
NC1CCCC(N(C(=O)c2ccc(-n3nnc4cccnc43)cc2)c2ncccc2Cl)C1 (stereo not drawn) [CLY-11]    9.1* mm

###

Test system: rabbit ear acne model
protocol_details: Rabbit ear acne model: epidermal thickness, hair follicle area, sebaceous gland diameter
Assay type: in vivo, New Zealand rabbits
condition_summary: rabbit right ear; intravenous injection 1 mg/kg·d
Entries and their measured sebaceous gland diameter follow.
observed_property: sebaceous gland diameter (mm)

O=C(c1ccc(-n2nnc3cccnc32)cc1)N(c1ncccc1Cl)C1CCCC(O)C1 (stereo not drawn)    0.0625
O=C(c1ccc(-c2ccccc2Cl)cc1)N(c1ncccc1Cl)[C@@H]1CCCNC1    0.0536
O=C(c1ccc(-c2ccccc2-c2nnn[nH]2)cc1)N(c1ncccc1Cl)[C@@H]1CCCNC1    0.0523
O=C(c1ccc(-n2nnc3cccnc32)cc1)N(c1ncccc1Cl)[C@@H]1CCNC1    0.0572
O=C(c1ccc(-n2nnc3cccnc32)cc1)N(c1ncccc1Cl)[C@@H]1CCCN1    0.0614
CCN1CCC[C@@H](N(C(=O)c2ccc(-n3nnc4cccnc43)cc2)c2ncccc2Cl)C1    0.0496

###

Tested on: serum IL-4
protocol_details: Mouse eczema model: serum IL-4 (ELISA)
Type: in vivo, C57BL/6 mice
condition_summary: after modeling, 0.1% cream for external use twice a day, 10 days (positive: aloxone)
observed_property: IL-4 level in peripheral blood (pg/mL)

Nc1ccccc1-c1ccc(C(=O)N(c2ncccc2Cl)[C@@H]2CCCNC2)cc1 [CLY-39]    5.75
CNC1CCCC(N(C(=O)c2ccc(-n3nnc4cccnc43)cc2)c2ncccc2Cl)C1 (stereo not drawn) [CLY-3]    7.32
O=C(c1ccc(-c2ccccc2-c2nnn[nH]2)cc1)N(c1ncccc1Cl)[C@@H]1CCCNC1 [CLY-19]    5.72
NC1CCCC(N(C(=O)c2ccc(-n3nnc4cccnc43)cc2)c2ncccc2Cl)C1 (stereo not drawn) [CLY-11]    6.45
CN1CCC[C@@H](N(C(=O)c2ccc(-n3nnc4cccnc43)cc2)c2ncccc2Cl)C1 [CLY-1]    6.76
O=C(c1ccc(-n2nnc3cccnc32)cc1)N(c1ncccc1Cl)[C@@H]1CCNC1 [CLY-8]    5.53
CCN1CCC[C@@H](N(C(=O)c2ccc(-n3nnc4cccnc43)cc2)c2ncccc2Cl)C1 [CLY-2]    5.58
O=C(c1ccc(-c2ccccc2Cl)cc1)N(c1ncccc1Cl)[C@@H]1CCCNC1 [CLY-36]    5.86
O=C(c1ccc(-n2nnc3cccnc32)cc1)N(c1ncccc1Cl)C1CCCC(O)C1 (stereo not drawn) [CLY-4]    7.51

###

Tested on: rabbit ear acne model
protocol_details: Rabbit ear acne model: epidermal thickness, hair follicle area, sebaceous gland diameter
Type: in vivo, New Zealand rabbits
condition_summary: rabbit right ear; external use (0.25% CLY cream; positive: Differin)
Marks after values point to notes of the source that are not given here.
Entries and their measured hair follicle area follow.
observed_property: hair follicle area

NC1CCCC(N(C(=O)c2ccc(-n3nnc4cccnc43)cc2)c2ncccc2Cl)C1 (centres unmarked)    0.2745 ± 0.0946* mm^2
CCN1CCC[C@@H](N(C(=O)c2ccc(-n3nnc4cccnc43)cc2)c2ncccc2Cl)C1    0.2639 ± 0.0934* mm^2
O=C(c1ccc(-c2ccccc2-c2nnn[nH]2)cc1)N(c1ncccc1Cl)[C@@H]1CCCNC1    0.2766 ± 0.0953* mm^2
COc1ccc(-c2ccc3cc(C(=O)O)ccc3c2)cc1C12CC3CC(CC(C3)C1)C2 [Positive treatment group, adapalene, reference compound]    0.2789 ± 0.0926* mm^2
O=C(c1ccc(-c2ccccc2Cl)cc1)N(c1ncccc1Cl)[C@@H]1CCCNC1    0.2773 ± 0.0945* mm^2
O=C(c1ccc(-n2nnc3cccnc32)cc1)N(c1ncccc1Cl)[C@@H]1CCCN1    0.2834 ± 0.0981* mm^2
Nc1ccccc1-c1ccc(C(=O)N(c2ncccc2Cl)[C@@H]2CCCNC2)cc1    0.2315 ± 0.0662* mm^2
CN1CCC[C@@H](N(C(=O)c2ccc(-n3nnc4cccnc43)cc2)c2ncccc2Cl)C1    0.2736 ± 0.0967* mm^2

###

Entries and their measured number of rabbits with acne histological grading — follow.
System: rabbit ear acne model
protocol_details: Rabbit ear acne model: macroscopic observation and histological grading
Assay type: in vivo, New Zealand rabbits
condition_summary: Level 0, without acne; right ear; intravenous injection 1 mg/kg·d; 10 per group
observed_property: number of rabbits with acne histological grading —

O=C(c1ccc(-n2nnc3cccnc32)cc1)N(c1ncccc1Cl)[C@@H]1CCNC1    9
O=C(c1ccc(-n2nnc3cccnc32)cc1)N(c1ncccc1Cl)C1CCCC(O)C1 (stereo not shown)    5
O=C(c1ccc(-n2nnc3cccnc32)cc1)N(c1ncccc1Cl)[C@@H]1CCCN1    7
O=C(c1ccc(-c2ccccc2Cl)cc1)N(c1ncccc1Cl)[C@@H]1CCCNC1    7
CCN1CCC[C@@H](N(C(=O)c2ccc(-n3nnc4cccnc43)cc2)c2ncccc2Cl)C1    8
CNC1CCCC(N(C(=O)c2ccc(-n3nnc4cccnc43)cc2)c2ncccc2Cl)C1 (stereo not shown)    6
CN1CCC[C@@H](N(C(=O)c2ccc(-n3nnc4cccnc43)cc2)c2ncccc2Cl)C1    7
O=C(c1ccc(-c2ccccc2-c2nnn[nH]2)cc1)N(c1ncccc1Cl)[C@@H]1CCCNC1    8
NC1CCCC(N(C(=O)c2ccc(-n3nnc4cccnc43)cc2)c2ncccc2Cl)C1 (stereo not shown)    7
Nc1ccccc1-c1ccc(C(=O)N(c2ncccc2Cl)[C@@H]2CCCNC2)cc1    7

###

System: skin hair follicles and sebaceous glands of rats
protocol_details: Rat hair loss model: histopathological grading of skin hair follicles and sebaceous glands
Format: in vivo, Wistar rats
condition_summary: grade ++; intravenous 2 mg/kg·d, 60 days; 10 rats per group
observed_property: number of rats with hair follicle and sebaceous gland grade ++

CN1CCC[C@@H](N(C(=O)c2ccc(-n3nnc4cccnc43)cc2)c2ncccc2Cl)C1    0
NC1CCCC(N(C(=O)c2ccc(-n3nnc4cccnc43)cc2)c2ncccc2Cl)C1 (stereo not shown)    1
CCN1CCC[C@@H](N(C(=O)c2ccc(-n3nnc4cccnc43)cc2)c2ncccc2Cl)C1    0
O=C(c1ccc(-c2ccccc2Cl)cc1)N(c1ncccc1Cl)[C@@H]1CCCNC1    3

###

Test system: rabbit ear acne model
protocol_details: Rabbit ear acne model: macroscopic observation and histological grading
Assay type: in vivo, New Zealand rabbits
condition_summary: Grade 2; right ear; intravenous injection 1 mg/kg·d; 10 per group
observed_property: number of rabbits with acne histological grading 2+

NC1CCCC(N(C(=O)c2ccc(-n3nnc4cccnc43)cc2)c2ncccc2Cl)C1 (stereo not shown) [CLY-11]    1
O=C(c1ccc(-n2nnc3cccnc32)cc1)N(c1ncccc1Cl)[C@@H]1CCCN1 [CLY-9]    0
CCN1CCC[C@@H](N(C(=O)c2ccc(-n3nnc4cccnc43)cc2)c2ncccc2Cl)C1 [CLY-2]    1
Nc1ccccc1-c1ccc(C(=O)N(c2ncccc2Cl)[C@@H]2CCCNC2)cc1 [CLY-39]    1
O=C(c1ccc(-c2ccccc2-c2nnn[nH]2)cc1)N(c1ncccc1Cl)[C@@H]1CCCNC1 [CLY-19]    1
O=C(c1ccc(-n2nnc3cccnc32)cc1)N(c1ncccc1Cl)C1CCCC(O)C1 (stereo not shown) [CLY-4]    2
O=C(c1ccc(-n2nnc3cccnc32)cc1)N(c1ncccc1Cl)[C@@H]1CCNC1 [CLY-8]    0
O=C(c1ccc(-c2ccccc2Cl)cc1)N(c1ncccc1Cl)[C@@H]1CCCNC1 [CLY-36]    2
CNC1CCCC(N(C(=O)c2ccc(-n3nnc4cccnc43)cc2)c2ncccc2Cl)C1 (stereo not shown) [CLY-3]    2
CN1CCC[C@@H](N(C(=O)c2ccc(-n3nnc4cccnc43)cc2)c2ncccc2Cl)C1 [CLY-1]    1

###

System: skin hair follicles and sebaceous glands of rats
protocol_details: Rat hair loss model: histopathological grading of skin hair follicles and sebaceous glands
Type: in vivo, Wistar rats
condition_summary: grade ± (lesions limited); intravenous 2 mg/kg·d, 60 days; 10 rats per group
Entries and their measured number of rats with hair follicle and sebaceous gland grade ± follow.
observed_property: number of rats with hair follicle and sebaceous gland grade ±

O=C(c1ccc(-c2ccccc2-c2nnn[nH]2)cc1)N(c1ncccc1Cl)[C@@H]1CCCNC1    6
NC1CCCC(N(C(=O)c2ccc(-n3nnc4cccnc43)cc2)c2ncccc2Cl)C1 (stereo not shown)    6
O=C(c1ccc(-n2nnc3cccnc32)cc1)N(c1ncccc1Cl)C1CCCC(O)C1 (stereo not shown)    4
CNC1CCCC(N(C(=O)c2ccc(-n3nnc4cccnc43)cc2)c2ncccc2Cl)C1 (stereo not shown)    5
O=C(c1ccc(-c2ccccc2Cl)cc1)N(c1ncccc1Cl)[C@@H]1CCCNC1    6
CN1CCC[C@@H](N(C(=O)c2ccc(-n3nnc4cccnc43)cc2)c2ncccc2Cl)C1    6
O=C(c1ccc(-n2nnc3cccnc32)cc1)N(c1ncccc1Cl)[C@@H]1CCNC1    8
